- subject_of_test: Tyrosine-protein phosphatase non-receptor type 11 (Homo sapiens)
- assay_overview: Inhibition of SHP2 (unknown origin) at 20 uM
Non-standard residues stand in square brackets, D forms with d. Residues, ends and D or L forms follow the SMILES beside them. Groups on a side chain read outwards from the residue. *: point of attachment. Phe(4-Br) = N[C@@H](Cc1ccc(Br)cc1)C(=O)O; 2Nal = N[C@@H](Cc1ccc2ccccc2c1)C(=O)O; NEt2 = CCN(CC)*
Please respond with reported inhibition for every item in the list.
// units = %; emit number, no label

# get_value(readout='inhibition', item= CCN(CC)C(=O)[C@H](Cc1ccc2ccccc2c1)NC(=O)[C@H](CC(C)C)NC(=O)[C@@H](NC(=O)[C@@H](N)COC(=O)[C@@H]1CCCN1C(C)=O)C(C)C (H-S([Pro-Ac])VL[2Nal]-NEt2) ) 58

# get_value(readout='inhibition', item= CCN(CC)C(=O)[C@H](Cc1ccc(OC)cc1)NC(=O)[C@H](CC(C)C)NC(=O)[C@@H](NC(=O)[C@@H](N)COC(=O)[C@H](CC(C)C)NC(C)=O)C(C)C (H-S([Leu-Ac])VLY(Me)-NEt2) ) 34

# get_value(readout='inhibition', item= CCN(CC)C(=O)[C@H](Cc1ccc(OC)cc1)NC(=O)[C@H](CC(C)C)NC(=O)[C@@H](NC(=O)[C@@H](N)COC(=O)[C@@H]1CCCN1C(C)=O)C(C)C (H-S([Pro-Ac])VLY(Me)-NEt2) ) 35

# get_value(readout='inhibition', item= CCN(CC)C(=O)[C@H](Cc1ccccc1)NC(=O)[C@H](CC(C)C)NC(=O)[C@@H](NC(=O)[C@@H](N)COC(=O)[C@H](CC(C)C)NC(C)=O)C(C)C (H-S([Leu-Ac])VLF-NEt2) ) 40

# get_value(readout='inhibition', item= CCN(CC)C(=O)[C@H](Cc1ccc(Br)cc1)NC(=O)[C@H](CC(C)C)NC(=O)[C@@H](NC(=O)[C@@H](N)COC(=O)[C@H](CC(C)C)NC(C)=O)C(C)C (H-S([Leu-Ac])VL[Phe(4-Br)]-NEt2) ) 46

----------
- subject_of_test: Tyrosine-protein phosphatase non-receptor type 11 (Homo sapiens)
- assay_overview: Inhibition of SHP2 (unknown origin) at 25 uM
Non-standard residues stand in square brackets, D forms with d. Residues, ends and D or L forms follow the SMILES beside them. Groups on a side chain read outwards from the residue. *: point of attachment. Phe(4-Br) = N[C@@H](Cc1ccc(Br)cc1)C(=O)O; Phe(4-F) = N[C@@H](Cc1ccc(F)cc1)C(=O)O; 2Nal = N[C@@H](Cc1ccc2ccccc2c1)C(=O)O; NEt2 = CCN(CC)*
attribute_measured: inhibition (%)
// units = %; emit number, no label

# get_value(readout='inhibition', item= CCN(CC)C(=O)[C@H](Cc1ccc2ccccc2c1)NC(=O)[C@H](CC(C)C)NC(=O)[C@@H](NC(=O)[C@@H](N)COC(=O)[C@@H]1CCCN1C(C)=O)C(C)C (H-S([Pro-Ac])VL[2Nal]-NEt2) ) 61

# get_value(readout='inhibition', item= CCN(CC)C(=O)[C@H](Cc1ccc(Br)cc1)NC(=O)[C@H](CC(C)C)NC(=O)[C@@H](NC(=O)[C@@H](N)COC(=O)[C@H](CC(C)C)NC(C)=O)C(C)C (H-S([Leu-Ac])VL[Phe(4-Br)]-NEt2) ) 49

# get_value(readout='inhibition', item= CCN(CC)C(=O)[C@H](Cc1ccccc1)NC(=O)[C@H](CC(C)C)NC(=O)[C@@H](NC(=O)[C@@H](N)COC(=O)[C@H](CC(C)C)NC(C)=O)C(C)C (H-S([Leu-Ac])VLF-NEt2) ) 46

# get_value(readout='inhibition', item= CCN(CC)C(=O)[C@H](Cc1ccc(F)cc1)NC(=O)[C@H](CC(C)C)NC(=O)[C@@H](NC(=O)[C@@H](N)COC(=O)[C@@H]1CCCN1C(C)=O)C(C)C (H-S([Pro-Ac])VL[Phe(4-F)]-NEt2) ) 47

----------
Non-standard residues stand in square brackets, D forms with d. Residues, ends and D or L forms follow the SMILES beside them. Groups on a side chain read outwards from the residue. *: point of attachment. Phe(4-Br) = N[C@@H](Cc1ccc(Br)cc1)C(=O)O; Phe(4-Cl) = N[C@@H](Cc1ccc(Cl)cc1)C(=O)O; Phe(4-F) = N[C@@H](Cc1ccc(F)cc1)C(=O)O; 2Nal = N[C@@H](Cc1ccc2ccccc2c1)C(=O)O; NEt2 = CCN(CC)*
// Acetylcholinesterase (Homo sapiens) IC50 records

# get_value(readout='IC50', item= CCN(CC)C(=O)[C@H](Cc1ccccc1)NC(=O)[C@H](CC(C)C)NC(=O)[C@@H](NC(=O)[C@@H](N)COC(=O)[C@@H]1CCCN1C(C)=O)C(C)C (H-S([Pro-Ac])VLF-NEt2) ) > 152 µM

# get_value(readout='IC50', item= CCN(CC)C(=O)[C@H](Cc1ccc2ccccc2c1)NC(=O)[C@H](CC(C)C)NC(=O)[C@@H](NC(=O)[C@@H](N)COC(=O)[C@@H]1CCCN1C(C)=O)C(C)C (H-S([Pro-Ac])VL[2Nal]-NEt2) ) > 141 µM

# get_value(readout='IC50', item= CCN(CC)C(=O)[C@H](Cc1ccc2ccccc2c1)NC(=O)[C@H](CC(C)C)NC(=O)[C@@H](NC(=O)[C@@H](N)COC(=O)[C@H](CC(C)C)NC(C)=O)C(C)C (H-S([Leu-Ac])VL[2Nal]-NEt2) ) > 138 µM

# get_value(readout='IC50', item= CCN(CC)C(=O)[C@H](Cc1ccccc1)NC(=O)[C@H](CC(C)C)NC(=O)[C@@H](NC(=O)[C@@H](N)COC(=O)[C@H](CC(C)C)NC(C)=O)C(C)C (H-S([Leu-Ac])VLF-NEt2) ) > 148 µM

# get_value(readout='IC50', item= CCN(CC)C(=O)[C@H](Cc1ccc(Cl)cc1)NC(=O)[C@H](CC(C)C)NC(=O)[C@@H](NC(=O)[C@@H](N)COC(=O)[C@@H]1CCCN1C(C)=O)C(C)C (H-S([Pro-Ac])VL[Phe(4-Cl)]-NEt2) ) > 144 µM

# get_value(readout='IC50', item= CCN(CC)C(=O)[C@H](Cc1ccc(F)cc1)NC(=O)[C@H](CC(C)C)NC(=O)[C@@H](NC(=O)[C@@H](N)COC(=O)[C@@H]1CCCN1C(C)=O)C(C)C (H-S([Pro-Ac])VL[Phe(4-F)]-NEt2) ) > 148 µM

# get_value(readout='IC50', item= CCN(CC)C(=O)[C@H](Cc1ccc(Br)cc1)NC(=O)[C@H](CC(C)C)NC(=O)[C@@H](NC(=O)[C@@H](N)COC(=O)[C@H](CC(C)C)NC(C)=O)C(C)C (H-S([Leu-Ac])VL[Phe(4-Br)]-NEt2) ) > 133 µM

# get_value(readout='IC50', item= CCN(CC)C(=O)[C@H](Cc1ccc(Cl)cc1)NC(=O)[C@H](CC(C)C)NC(=O)[C@@H](NC(=O)[C@@H](N)COC(=O)[C@H](CC(C)C)NC(C)=O)C(C)C (H-S([Leu-Ac])VL[Phe(4-Cl)]-NEt2) ) > 141 µM

# get_value(readout='IC50', item= CCN(CC)C(=O)[C@H](Cc1ccc(F)cc1)NC(=O)[C@H](CC(C)C)NC(=O)[C@@H](NC(=O)[C@@H](N)COC(=O)[C@H](CC(C)C)NC(C)=O)C(C)C (H-S([Leu-Ac])VL[Phe(4-F)]-NEt2) ) > 144 µM

# get_value(readout='IC50', item= CCN(CC)C(=O)[C@H](Cc1ccc(OC)cc1)NC(=O)[C@H](CC(C)C)NC(=O)[C@@H](NC(=O)[C@@H](N)COC(=O)[C@@H]1CCCN1C(C)=O)C(C)C (H-S([Pro-Ac])VLY(Me)-NEt2) ) > 145 µM

# get_value(readout='IC50', item= CCN(CC)C(=O)[C@H](Cc1ccc(Br)cc1)NC(=O)[C@H](CC(C)C)NC(=O)[C@@H](NC(=O)[C@@H](N)COC(=O)[C@@H]1CCCN1C(C)=O)C(C)C (H-S([Pro-Ac])VL[Phe(4-Br)]-NEt2) ) > 136 µM

# get_value(readout='IC50', item= CCN(CC)C(=O)[C@H](Cc1ccc(OC)cc1)NC(=O)[C@H](CC(C)C)NC(=O)[C@@H](NC(=O)[C@@H](N)COC(=O)[C@H](CC(C)C)NC(C)=O)C(C)C (H-S([Leu-Ac])VLY(Me)-NEt2) ) > 142 µM
